biological target: recombinant human integrin αvβ6 headpiece (Expi293F) (human, UniProt P06756 31-429; P18564 130-371, I287C); assay: ELISA; competition with hLAP1
Sequence (P06756 other isoform, or with tags, fused parts or gaps I287C, chain 1 of 2): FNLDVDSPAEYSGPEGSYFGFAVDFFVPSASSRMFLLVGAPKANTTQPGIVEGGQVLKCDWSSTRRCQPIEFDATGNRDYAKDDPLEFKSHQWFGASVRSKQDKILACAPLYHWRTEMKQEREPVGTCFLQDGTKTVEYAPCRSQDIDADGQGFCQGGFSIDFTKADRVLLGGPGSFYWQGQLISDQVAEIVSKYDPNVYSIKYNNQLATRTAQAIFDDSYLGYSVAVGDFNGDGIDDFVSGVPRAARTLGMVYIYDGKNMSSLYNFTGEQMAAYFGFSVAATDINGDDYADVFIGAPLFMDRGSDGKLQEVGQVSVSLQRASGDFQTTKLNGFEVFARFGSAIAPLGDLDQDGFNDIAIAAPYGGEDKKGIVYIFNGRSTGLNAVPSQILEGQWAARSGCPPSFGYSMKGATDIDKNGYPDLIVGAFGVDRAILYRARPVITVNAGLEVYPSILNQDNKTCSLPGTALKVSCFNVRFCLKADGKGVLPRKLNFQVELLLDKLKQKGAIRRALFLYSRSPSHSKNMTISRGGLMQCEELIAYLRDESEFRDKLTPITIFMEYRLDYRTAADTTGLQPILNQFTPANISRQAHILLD
Sequence (P18564 18-491 I287C, chain 2 of 2): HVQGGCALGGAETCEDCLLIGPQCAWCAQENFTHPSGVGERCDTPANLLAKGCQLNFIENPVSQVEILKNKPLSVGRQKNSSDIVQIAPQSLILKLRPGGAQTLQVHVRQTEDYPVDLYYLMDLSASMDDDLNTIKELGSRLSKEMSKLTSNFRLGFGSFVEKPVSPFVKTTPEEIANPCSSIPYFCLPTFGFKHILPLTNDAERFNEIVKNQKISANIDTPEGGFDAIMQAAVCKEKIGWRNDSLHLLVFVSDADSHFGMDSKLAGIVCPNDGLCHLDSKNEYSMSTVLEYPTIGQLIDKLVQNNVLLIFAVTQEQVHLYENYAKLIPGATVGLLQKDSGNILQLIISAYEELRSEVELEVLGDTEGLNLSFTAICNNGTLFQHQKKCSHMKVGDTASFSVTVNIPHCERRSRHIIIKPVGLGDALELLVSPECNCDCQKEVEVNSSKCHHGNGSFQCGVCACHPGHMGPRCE
Observation Type: IC50

Q: Tell me the measured IC50 of B8_BP_dslf (designed binder) TKCVVRFNFRGDMAVYALKAVKDHLKKEGPHWNITTHNDDEVYLVVRGIHESDAKRIAKWVESTIPGISVETQCD , please.
Ans: > 500 nM
